- PROTOCOL_DESCRIPTION: yeast aging ROS inhibitors as calorie-restriction mimetics – HTS, primary screen (AID 2690);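 further: yeast aged for seven days with compound at 30 °C before DHE staining; 100% = average MFI of all compound-treated wells on the plate with controls excluded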
- EXPERIMENTAL_PARAMETERS: S. cerevisiae aged cells, superoxide DHE fluorescence; at 10 µM; active compounds read low
The campaign covered roughly 330,000 compounds. About 590 (0.18%) were called active. The sample holds actives, similar compounds and a random draw of the others, so the mix is not that of the screen.
Rule: measured superoxide response (% of plate mean) below 90% gets t; anything equal to or greater than 90% gets f.

molecule="CN(C)c1ccc(/C=N/NC(=O)C(O)c2ccc(Br)cc2)cc1 (stereo unspecified)" label=f
molecule=CSc1sc(C(=O)NNC(=O)c2ccc(Cl)cc2)c2c1C=CCC2 label=t
molecule="COc1ccc(CNC(=O)C2CC(c3ccc(C(F)(F)F)cc3)=NO2)cc1 (stereo unspecified)" label=f
molecule=CN(C)c1ccc(C=NCCc2ccc(S(N)(=O)=O)cc2)cc1 label=t
molecule="O=C(NNC(=O)C1C2CCC(C2)C1C(=O)O)c1ccc(Cl)cc1 (stereo unspecified)" label=f
molecule="CC1CC(C)CN(C(=O)CSc2ccsc2[N+](=O)[O-])C1 (stereo unspecified)" label=f
molecule="COCCN(C(=O)CCC(=O)Nc1nccs1)C(C(=O)NC(C)(C)C)c1ccc(Cl)cc1 (stereo unspecified)" label=t

Turning to the following molecule.
QUERY: Lab note: superoxide response (% of plate mean) threshold 90%. Does this molecule come in strictly under it? "O=C(CSc1nnnn1C1CCCC1)Nc1ccc2c(c1)OCCO2"
RESULT: f

---

- PROTOCOL_DESCRIPTION: yeast aging ROS inhibitors as calorie-restriction mimetics – HTS, primary screen (AID 2690);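 further: yeast aged for seven days with compound at 30 °C before DHE staining; 100% = average MFI of all compound-treated wells on the plate with controls excluded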
- EXPERIMENTAL_PARAMETERS: S. cerevisiae aged cells, superoxide DHE fluorescence; at 10 µM; active compounds read low
The campaign covered roughly 330,000 compounds. About 590 (0.18%) were called active. The entries come from a sample that favours actives as a whole.
Entries and their superoxide response (% of plate mean)
Give the quantity in %, number only.

Before answering, review these 6 worked examples.
compound="COc1ccccc1C(=O)N1CCNC(=O)C1CC(=O)Nc1ccc(Cl)cc1 (stereo not given)" measurement=103
compound=CCN(CC)S(=O)(=O)c1cc([N+](=O)[O-])ccc1NNC(=O)Nc1ccccc1 measurement=101
compound=COc1cc(C(=S)N2CCOCC2)cc(OC)c1OC(=O)c1cc([N+](=O)[O-])c(C)c([N+](=O)[O-])c1 measurement=113
compound=Cc1cccc2c1cnn2C(=O)CCC(=O)NC1CCCCC1 measurement=82.7
compound=COc1cc(NC(=O)C2=C(C)OCCS2)c(Cl)cc1C(=O)NCCN1CCN(C)CC1 measurement=99.2
compound=O=C(Nc1ccccc1N1CCCC1)c1ccc(F)c(S(=O)(=O)N2CCOCC2)c1 measurement=85.3

QUERY: Entry "O=C(NNC(=O)c1cc(S(=O)(=O)N2CCCCC2)ccc1Cl)c1ccccc1O" has what superoxide response (% of plate mean)?
RESULT: 95.4

QUERY: Now this one: "CCN(CC)N=Nc1cccc(NC(C)=O)c1"
RESULT: 96.8

QUERY: Try CC(C(=O)N=Nc1c(O)n(C)c2ccc(Br)cc12)n1cnc2ccccc2c1=O (stereo not given) next.
RESULT: 89.3

QUERY: Next compound: "O=C(NC(=S)Nc1ccccc1N1CCCCC1)c1ccc(F)cc1"
RESULT: 98.2
